Here the recorded MTD at 17 days is given for each entry.
Assay: MTD (maximum tolerated dose) acute toxicity in mice
Format: in vivo, mouse
Settings: female, mouse, in vivo; BALB/C mice, intravenous, observed 17 days
QUANTITY_KIND: MTD at 17 days (mg/kg)

• CC(NC(=O)C(NC(=O)[C@H](O)[C@H](O)[C@@H](O[C@@H]1O[C@H](CO)[C@H](O)[C@H](O)[C@H]1O)[C@H](O)CO)C(C)C)C(=O)NC(CC(N)=O)C(=O)Nc1ccc(COC(=O)Nc2c(-c3nc4ccc(N5CCN(C)CC5)cc4[nH]3)c(=O)[nH]c3cccc(F)c23)cc1 (stereo partly drawn) = 300
• CC(NC(=O)C(NC(=O)[C@H](O)[C@H](O)[C@@H](O[C@@H]1O[C@H](CO)[C@H](O)[C@H](O)[C@H]1O)[C@H](O)CO)C(C)C)C(=O)NC(CC(N)=O)C(=O)Nc1ccc(COC(=O)N(C)CCNC(=O)c2cc(Oc3ccc(NC(=O)Nc4ccc(Cl)c(C(F)(F)F)c4)c(F)c3)ccn2)cc1 (stereo partly drawn) = 280
• C[C@H](N)C(=O)N[C@@H](C)C(=O)N[C@@H](CC(N)=O)C(=O)Nc1ccc(COC(=O)N(C)CCNC(=O)c2cc(Oc3ccc(NC(=O)Nc4ccc(Cl)c(C(F)(F)F)c4)cc3)ccn2)cc1 [Compound C2, AAN-PABC-Compound a, reference compound] = 60

###

Test system: CT26 tumor cells
Experiment: CT26 immunotherapy model (Example 15)
Assay type: in vivo, mice
Conditions: IV ⅓ MTD once a week, 6 weeks
QUANTITY_KIND: Tumor inhibition rate % (Day 42) (%)

- CC(NC(=O)C(NC(=O)[C@H](O)[C@H](O)[C@@H](O[C@@H]1O[C@H](CO)[C@H](O)[C@H](O)[C@H]1O)[C@H](O)CO)C(C)O)C(=O)NC(CC(N)=O)C(=O)Nc1ccc(COC(=O)N(C)CCNC(=O)c2cc(Oc3ccc(NC(=O)Nc4ccc(Cl)c(C(F)(F)F)c4)cc3)ccn2)cc1 (stereo partly shown) [Compound S13, Lacto-TAN-PABC-compound a]: 79.7

###

Here the recorded Death dose is given for each entry.
Tested on: BALB/C mouse
Test: MTD (maximum tolerated dose) acute toxicity in mice
Format: in vivo
Conditions: intravenous, observed 17 days
Residues, ends and D or L forms follow the SMILES beside them. *: point of attachment. X1 = CN(CCNC(=O)c1cc(Oc2ccc(NC(=O)Nc3ccc(Cl)c(C(F)(F)F)c3)cc2)ccn1)*
QUANTITY_KIND: Death dose (mg/kg)

* CC(NC(=O)C(C)NC(=O)[C@H](O)[C@H](O)[C@@H](O[C@@H]1O[C@H](CO)[C@H](O)[C@H](O)[C@H]1O)[C@H](O)CO)C(=O)NC(CC(N)=O)C(=O)Nc1ccc(COC(=O)N(C)CCNC(=O)c2cc(Oc3ccc(NC(=O)Nc4ccc(Cl)c(C(F)(F)F)c4)c(F)c3)ccn2)cc1 (stereo partly shown) [Compound S2, Lacto-AAN-PABC-Compound b] | 350
* C[C@H](N=C[C@H](O)[C@@H](O)[C@H](O)[C@H](O)CO)C(=O)N[C@@H](C)C(=O)N[C@@H](CC(N)=O)C(=O)Nc1ccc(COC(=O)N(C)CCNC(=O)c2cc(Oc3ccc(NC(=O)Nc4ccc(Cl)c(C(F)(F)F)c4)cc3)ccn2)cc1 [Compound C4, Glucose-AAN-PABC-Compound a, reference compound] | 90
* C[C@H](NC(=O)[C@@H](NC(=O)[C@H](O)[C@@H](O)[C@H](O[C@@H]1O[C@H](CO)[C@H](O)[C@H](O)[C@H]1O)[C@H](O)CO)[C@@H](C)O)C(=O)N[C@@H](CC(N)=O)C(=O)Nc1ccc(COC(=O)Nc2nccc(-c3sc(C(C)(C)C)nc3-c3cccc(NS(=O)(=O)c4c(F)cccc4F)c3F)n2)cc1 [Compound S16] | 300
* CC(NC(=O)C(C)NC(=O)[C@H](O)[C@H](O)[C@@H](O[C@@H]1O[C@H](CO)[C@H](O)[C@H](O)[C@H]1O)[C@H](O)CO)C(=O)NC(CC(N)=O)C(=O)Nc1ccc(COC(=O)Nc2nccc(-c3sc(C(C)(C)C)nc3-c3cccc(NS(=O)(=O)c4c(F)cccc4F)c3F)n2)cc1 (stereo partly shown) [Compound S4] | 300
* CC(NC(=O)C(NC(=O)[C@H](O)[C@H](O)[C@@H](O[C@@H]1O[C@H](CO)[C@H](O)[C@H](O)[C@H]1O)[C@H](O)CO)C(C)O)C(=O)NC(CC(N)=O)C(=O)Nc1ccc(COC(=O)N(C)CCNC(=O)c2cc(Oc3ccc(NC(=O)Nc4ccc(Cl)c(C(F)(F)F)c4)c(F)c3)ccn2)cc1 (stereo partly shown) [Compound S14, Lacto-TAN-PABC-compound b] | 350
* CC(NC(=O)C(NC(=O)[C@H](O)[C@H](O)[C@@H](O[C@@H]1O[C@H](CO)[C@H](O)[C@H](O)[C@H]1O)[C@H](O)CO)C(C)C)C(=O)NC(CC(N)=O)C(=O)Nc1ccc(COC(=O)Nc2nccc(-c3sc(C(C)(C)C)nc3-c3cccc(NS(=O)(=O)c4c(F)cccc4F)c3F)n2)cc1 (stereo partly shown) [Compound S10] | 320
* CC(C)C[C@H](NC(=O)[C@H](CC(N)=O)NC(=O)[C@H](C)NC(=O)[C@H](C)N)C(=O)N(C)CCNC(=O)c1cc(Oc2ccc(NC(=O)Nc3ccc(Cl)c(C(F)(F)F)c3)cc2)ccn1 [Compound C1, AANL-Compound a, reference compound] (H-AANL-X1) | 80
* COc1cccc2c1C(=O)c1c(O)c3c(c(O)c1C2=O)C[C@@](O)(C(=O)CO)C[C@@H]3O[C@H]1C[C@H](N)[C@H](O)[C@H](C)O1 [Adriamycin, reference compound] | 10
* COc1cccc2c1C(=O)c1c(O)c3c(c(O)c1C2=O)C[C@](O)(C(=O)CO)CC3OC1C[C@H](NC(=O)OCc2ccc(NC(=O)C(CC(N)=O)NC(=O)C(C)NC(=O)C(NC(=O)[C@H](O)[C@H](O)[C@@H](O[C@@H]3O[C@H](CO)[C@H](O)[C@H](O)[C@H]3O)[C@H](O)CO)C(C)C)cc2)[C@H](O)[C@H](C)O1 (stereo partly shown) [Compound S9] | 120
* C[C@H](N)C(=O)N[C@@H](C)C(=O)N[C@@H](CC(N)=O)C(=O)Nc1ccc(COC(=O)N(C)CCNC(=O)c2cc(Oc3ccc(NC(=O)Nc4ccc(Cl)c(C(F)(F)F)c4)cc3)ccn2)cc1 [Compound C2, AAN-PABC-Compound a, reference compound] | 70
* CC(NC(=O)C(NC(=O)[C@H](O)[C@H](O)[C@@H](O[C@@H]1O[C@H](CO)[C@H](O)[C@H](O)[C@H]1O)[C@H](O)CO)C(C)C)C(=O)NC(CC(N)=O)C(=O)Nc1ccc(COC(=O)N2CC(C)(C)c3ccc(NC(=O)c4cccnc4NCc4ccncc4)cc32)cc1 (stereo partly shown) [Compound S12] | 300
* CC(NC(=O)C(NC(=O)[C@H](O)[C@H](O)[C@@H](O[C@@H]1O[C@H](CO)[C@H](O)[C@H](O)[C@H]1O)[C@H](O)CO)C(C)C)C(=O)NC(CC(N)=O)C(=O)Nc1ccc(COC(=O)N(C)CCNC(=O)c2cc(Oc3ccc(NC(=O)Nc4ccc(Cl)c(C(F)(F)F)c4)c(F)c3)ccn2)cc1 (stereo partly shown) [Compound S8, Lacto-VAN-PABC-compound b] | 340
* COc1cccc2c1C(=O)c1c(O)c3c(c(O)c1C2=O)C[C@](O)(C(=O)CO)CC3OC1C[C@H](NC(=O)OCc2ccc(NC(=O)C(CC(N)=O)NC(=O)C(C)NC(=O)C(NC(=O)[C@H](O)[C@H](O)[C@@H](O[C@@H]3O[C@H](CO)[C@H](O)[C@H](O)[C@H]3O)[C@H](O)CO)C(C)O)cc2)[C@H](O)[C@H](C)O1 (stereo partly shown) [Compound S15] | 100

###

Assay: Solid stability, 60° C. for 10 days in the dark (HPLC)
Type: physicochemical
Settings: solid, 60° C., 10 days, dark
QUANTITY_KIND: Stability verdict (stable / unstable)

* CC(NC(=O)C(NC(=O)[C@H](O)[C@H](O)[C@@H](O[C@@H]1O[C@H](CO)[C@H](O)[C@H](O)[C@H]1O)[C@H](O)CO)C(C)C)C(=O)NC(CC(N)=O)C(=O)Nc1ccc(COC(=O)N(C)CCNC(=O)c2cc(Oc3ccc(NC(=O)Nc4ccc(Cl)c(C(F)(F)F)c4)c(F)c3)ccn2)cc1 (stereo partly drawn) [Compound S8, Lacto-VAN-PABC-compound b] | stable
* CC(NC(=O)C(NC(=O)[C@H](O)[C@H](O)[C@@H](O[C@@H]1O[C@H](CO)[C@H](O)[C@H](O)[C@H]1O)[C@H](O)CO)C(C)O)C(=O)NC(CC(N)=O)C(=O)Nc1ccc(COC(=O)N(C)CCNC(=O)c2cc(Oc3ccc(NC(=O)Nc4ccc(Cl)c(C(F)(F)F)c4)c(F)c3)ccn2)cc1 (stereo partly drawn) [Compound S14, Lacto-TAN-PABC-compound b] | stable
